details: human gut metagenome, 24 h, 2 µM; further: call rule not given here
Recorded metric: Bacterial Biotransformation

A selection of reference data follows.
Molecule	Result
CC1=C(CC(=O)O)c2cc(F)ccc2/C1=C\c1ccc([S+](C)[O-])cc1 (stereo not given)	Compound metabolized
O=C1CN2Cc3c(ccc(Cl)c3Cl)N=C2N1 [ANAGRELIDE]	Compound NOT metabolized
CC#C[C@]1(O)CC[C@H]2[C@@H]3CCC4=CC(=O)CCC4=C3[C@@H](c3ccc(N(C)C)cc3)C[C@@]21C [MIFEPRISTONE]	Compound NOT metabolized
CCN(CC)C(=O)C1(c2ccccc2)CC1CN (stereo not given)	Compound NOT metabolized
O=C(O)CCC(=O)O.O=C(O[C@H]1CN2CCC1CC2)N1CCc2ccccc2[C@@H]1c1ccccc1 [SOLIFENACIN SUCCINATE]	Compound NOT metabolized

For this molecule ( CCOC(=O)[C@H](CCc1ccccc1)N[C@@H](C)C(=O)N1Cc2ccccc2C[C@H]1C(=O)O ), measured Bacterial Biotransformation is Compound metabolized

Documented Bacterial Biotransformation of N#Cc1ccc2c(c1)N(CCCN1CCC(O)CC1)c1ccccc1S2 [PERICIAZINE] : Compound NOT metabolized

response.value for CN1CCN2c3ccccc3Cc3ccccc3C2C1 (stereo not given) [MIANSERIN] (field: Bacterial Biotransformation) = Compound metabolized

So for CCOC(=O)[C@H](CCc1ccccc1)N[C@@H](C)C(=O)N1CCC[C@H]1C(=O)O.O=C(O)/C=C\C(=O)O [ENALAPRIL MALEATE] , the logged Bacterial Biotransformation turned out to be Compound NOT metabolized
